// provenance: ChEMBL document CHEMBL1201862

Consider the following compounds; for each one, report its GI50.
- Tested on: SK-MEL-28
- Test Method Notes: NCI tumour cell line growth inhibition, 48 h
Activity calls are given as the source filed them. Rule as the data show it: active = GI50 up to about 1.1 µM and inactive = higher.

SK-MEL-28 GI50 of CCCOc1ccc(-c2nc(-c3ccc(/N=C/c4ccc(N(CCOS(C)(=O)=O)CCOS(C)(=O)=O)cc4C)cc3)cs2)cc1 is 67.9 µM (inactive)

SK-MEL-28 GI50 of Cc1ccc2c(c1)[nH]c(=S)n2/C=C1\C(=O)Oc2ccccc2C1=O is 47.3 µM (inactive)

SK-MEL-28 GI50 of O=C1C2C3C=C4c5ccccc5N(c5ccccc5)C4(C2C(=O)N1c1ccc([N+](=O)[O-])cc1)[C@H]1C(=O)N(c2ccc([N+](=O)[O-])cc2)C(=O)[C@@H]31 (stereo partly specified) is > 100 µM (inactive)

SK-MEL-28 GI50 of ClC(Cl)[Si]12OCCN(CCO1)CCO2 is > 100 µM (inactive)

SK-MEL-28 GI50 of CCCCCCCCC(C)CCCCCCCCC(=O)OCC(COP(=O)([O-])OCC[N+](C)(C)C)OC(=O)CCCCCCCCC(C)CCCCCCCC (stereo unspecified) is > 100 µM (inactive)

SK-MEL-28 GI50 of COc1ccc(-c2nc3c(C(=O)NCCN(C)C)cccc3c3ccccc23)cc1 is 1.97 µM (inactive)

SK-MEL-28 GI50 of COCCOC(=O)C(C)=[N+]=[N-] is > 100 µM (inactive)

SK-MEL-28 GI50 of COC(=O)C1=C(C)NC(C)=C(C(=O)OC)C1c1cccc(N=O)c1 is 16.7 µM (inactive)

SK-MEL-28 GI50 of Cn1c2c(c3ccccc31)CCN1C(=O)C34CCCC3CC21S4 (stereo unspecified) is > 100 µM (inactive)

SK-MEL-28 GI50 of Cc1cn([C@@H]2C[C@H](CO)[C@@H]2O)c(=O)[nH]c1=O is > 100 µM (inactive)

SK-MEL-28 GI50 of CCOc1ccccc1NC(=O)C1=C(C)NC(C)=C(C(=O)Nc2ccccc2OCC)C1c1ccc([N+](=O)[O-])cc1 is > 100 µM (inactive)

SK-MEL-28 GI50 of CCN(CC)CCNC(=O)c1ccc([N+](=O)[O-])cc1OC is > 100 µM (inactive)

SK-MEL-28 GI50 of S=C1NN=C2C(=C3CCCC4C5CCCCC5N2C34)N1 (stereo unspecified) is > 100 µM (inactive)

SK-MEL-28 GI50 of COc1ccc(C[C@@H]2OC3(C=CC(=O)C=C3)O[C@H]2Cc2ccc(OC)cc2)cc1 is 1.71 µM (inactive)

SK-MEL-28 GI50 of COC(=O)C1(C(=O)OC)CC2c3c(c4ccccc4n3C)CC(C1=O)N2Cc1ccccc1 (stereo unspecified) is 80 µM (inactive)

SK-MEL-28 GI50 of CN(C)c1ccc2oc(=O)c3ccccc3c2c1 is > 100 µM (inactive)

SK-MEL-28 GI50 of COc1ccc(C2=Nc3c(nc(SC)[nH]c3=O)NC(c3ccccc3)C2)cc1 (stereo unspecified) is > 10 µM (inactive)

SK-MEL-28 GI50 of NCCSC(c1ccccc1)c1ccccc1 is 18.6 µM (inactive)

SK-MEL-28 GI50 of O=c1c2c3c(sc2nc2n1N=CN(c1ccccc1)C2)CCCC3 is > 100 µM (inactive)

SK-MEL-28 GI50 of O=C(O)CC1OCC=C2C[N+]3([O-])CCC45c6ccccc6NC4C1C2CC53 (stereo unspecified) is > 100 µM (inactive)

SK-MEL-28 GI50 of Cc1c(CN)c(C)c(CN)c(C)c1CN is > 100 µM (inactive)
